B1: TRAF3IP2 (parent)
chain: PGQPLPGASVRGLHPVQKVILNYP

# Variants of: B1
# PROTOCOL DETAILS: protein stability index of a GFP-peptide fusion (GPS, HEK-293T) (PSI 1-6); higher = more stable;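 also: lentivirally expressed fusions sorted by FACS into six bins by GFP to DsRed ratio, PSI derived from sequencing read proportions per bin multiplied by bin number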
# MEASUREMENT CONTEXT: c terminus: a fixed tail appended
Would you please tag the item y when its protein stability index is 3 or above, and n when it is below?

record_sequence="PGQPLPGASVRGLHPVQKRILNYP [V19R]" label=n
record_sequence="PGQPLPGASVRRLHPVQKVILNYP [G12R]" label=n
record_sequence="PGQPLPGARVRGLHPVQKVILNYP [S9R]" label=n
record_sequence="PGQPLPGASVRGLNPVQKVILNYP [H14N]" label=y
record_sequence="PGQPLPGASVRGLMPVQKVILNYP [H14M]" label=n
record_sequence="PGQPLPGASVRVLHPVQKVILNYP [G12V]" label=n
record_sequence="YGQPLPGASVRGLHPVQKVILNYP [P1Y]" label=n
record_sequence="PGQPLPGAKVRGLHPVQKVILNYP [S9K]" label=y
record_sequence="PGQPNPGASVRGLHPVQKVILNYP [L5N]" label=y
